// provenance: ChEMBL document CHEMBL1914316

molecular target: Acyl-CoA desaturase 1 (Rattus norvegicus); assay: Inhibition of rat SCD by rat microsomal assay
Sequence (P07308 whole entry): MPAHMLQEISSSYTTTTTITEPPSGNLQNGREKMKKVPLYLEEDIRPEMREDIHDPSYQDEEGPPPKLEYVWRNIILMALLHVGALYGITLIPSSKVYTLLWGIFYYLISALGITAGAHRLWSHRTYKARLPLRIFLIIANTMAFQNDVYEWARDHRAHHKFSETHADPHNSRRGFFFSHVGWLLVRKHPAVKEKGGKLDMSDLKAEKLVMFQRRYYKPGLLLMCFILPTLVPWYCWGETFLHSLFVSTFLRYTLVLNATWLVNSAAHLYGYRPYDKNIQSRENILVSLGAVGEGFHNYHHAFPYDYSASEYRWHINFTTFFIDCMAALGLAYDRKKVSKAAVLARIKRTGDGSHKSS
Label Satisfied when IC50 is strictly below 1000 nM; otherwise label Not satisfied.

1) O=C(O)CCCCc1nc(-c2cn(Cc3cc(Br)c(Br)c(Br)c3)nn2)no1
Not satisfied
2) O=C(O)Cn1nnc(-c2ccnc(-c3cn(Cc4cc(Cl)c(Cl)c(Cl)c4)nn3)c2)n1
Not satisfied
3) NC(=O)c1nnn(Cc2cc(Br)c(Br)c(Br)c2)c1N
Satisfied
4) O=C(O)CCCCCc1nc(-c2cn(Cc3cc(Br)c(Br)c(Br)c3)nn2)no1
Not satisfied
5) O=C(O)Cn1nnc(-c2cnc(-c3cn(Cc4cc(Cl)c(Cl)c(Cl)c4)nn3)nc2)n1
Satisfied
